# experimental.target: OsWOX13 (Oryza sativa, UniProt Q5QMM3 1-267)
# Sequence: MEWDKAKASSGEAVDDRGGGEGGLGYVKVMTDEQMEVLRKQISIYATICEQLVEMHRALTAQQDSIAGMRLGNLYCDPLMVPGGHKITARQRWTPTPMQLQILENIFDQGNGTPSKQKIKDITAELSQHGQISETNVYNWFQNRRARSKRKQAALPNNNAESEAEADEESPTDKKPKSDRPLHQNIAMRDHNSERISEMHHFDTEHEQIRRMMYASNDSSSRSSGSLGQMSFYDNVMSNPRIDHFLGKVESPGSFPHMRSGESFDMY
# test.name: protein-binding microarray (RPBM); PBS, 2% BSA, 51.3 ng/ul salmon testes DNA, 50 uM zinc acetate, 200 nM TF, 25 C, 1 h; high values mean tight binding
# condition.context: protein: recombinant; tags: N-terminal polyhistidine and DsRed monomer fusion (pET32a); label: CyDye5-dUTP incorporated in the synthesized complementary strand; 3' TTTTT single-stranded linker to array surface; dsDNA, one strand shown
The full ranking holds about 35,000 sequences; the median of “fluorescence intensity (a.u.)” is about 10,000, and the highest 2% start at about 52,000. The entries come from a sample that favours the highest values as a whole.
measured.endpoint: binding signal

> print(dat)
                           monomer.sequence  measured.endpoint                       recorded.value
1  TAACTAATTATTAATTGTTTTCCTATCATTTGATTCATTGCGGAGTCACCTAGTGCAG     binding signal  53200 fluorescence intensity (a.u.)
2  CTAATTGGCAAATTAAACAAAGAAGAAGAGGAAAGGAAGGCGGAGTCACCTAGTGCAG     binding signal  44700 fluorescence intensity (a.u.)
3  GATTTAATGGATCACCTGCTATTACAGATTCCTTCAGTTGCGGAGTCACCTAGTGCAG     binding signal   4210 fluorescence intensity (a.u.)
4  AAACTTTAATTTATCAACCATAAAAGAAACAATTAGAAGGCGGAGTCACCTAGTGCAG     binding signal   6940 fluorescence intensity (a.u.)
5  AAATGATTTGATCTAAATTGATAAGTTACTGAGGAGTGCGCGGAGTCACCTAGTGCAG     binding signal  64800 fluorescence intensity (a.u.)

----------
# experimental.target: OsWOX13 (Oryza sativa, UniProt Q5QMM3 1-267)
# Sequence: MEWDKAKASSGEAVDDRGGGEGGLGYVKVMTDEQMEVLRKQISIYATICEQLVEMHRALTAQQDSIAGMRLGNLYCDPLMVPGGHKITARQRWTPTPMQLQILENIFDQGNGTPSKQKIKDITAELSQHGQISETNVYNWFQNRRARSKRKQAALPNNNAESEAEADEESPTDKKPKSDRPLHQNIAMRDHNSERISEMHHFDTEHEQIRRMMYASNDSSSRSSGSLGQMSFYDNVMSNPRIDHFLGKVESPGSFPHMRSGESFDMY
# test.name: protein-binding microarray (RPBM); PBS, 2% BSA, 51.3 ng/ul salmon testes DNA, 50 uM zinc acetate, 200 nM TF, 25 C, 1 h; high values mean tight binding
# condition.context: protein: recombinant; tags: N-terminal polyhistidine and DsRed monomer fusion (pET32a); label: CyDye5-dUTP incorporated in the synthesized complementary strand; 3' TTTTT single-stranded linker to array surface; dsDNA, one strand shown
Whole data set: some 35,000 sequences, median “fluorescence intensity (a.u.)” near 10,000, cut for the highest 2% near 52,000. The list comes from a sample in which the highest values are over-represented; it also holds close analogues and randomly drawn sequences.
measured.endpoint: binding signal

> print(dat)
                            monomer.sequence                       experimental.target                       recorded.value
 1  AGTCAATCAGTCAATCTGGACCGTCCACGGCAGAAGAAGTCGGAGTCACCTAGTGCAG  OsWOX13 (Oryza sativa, UniProt Q5QMM3 1-267)  30700 fluorescence intensity (a.u.)
 2  ATTCTGATTGGCAAGTTGGTTATTCCTTTTCTGATTGGTTCGGAGTCACCTAGTGCAG  OsWOX13 (Oryza sativa, UniProt Q5QMM3 1-267)  60700 fluorescence intensity (a.u.)
 3  CTGTATATTGATTGATTGGTTATTCGCAAGAAACATGACTCGGAGTCACCTAGTGCAG  OsWOX13 (Oryza sativa, UniProt Q5QMM3 1-267)  65100 fluorescence intensity (a.u.)
 4  TTAACAATATTTTAATGATTGCTCTTGTGCTTAGAAAATTCGGAGTCACCTAGTGCAG  OsWOX13 (Oryza sativa, UniProt Q5QMM3 1-267)   5300 fluorescence intensity (a.u.)
 5  CTCTGATAGATTGCGACCTTCTTGTTGTTTAACAACGTTACGGAGTCACCTAGTGCAG  OsWOX13 (Oryza sativa, UniProt Q5QMM3 1-267)  54000 fluorescence intensity (a.u.)
 6  GTTATCATGATTTATATTCCCAAGGTTTGACTTAAACATTCGGAGTCACCTAGTGCAG  OsWOX13 (Oryza sativa, UniProt Q5QMM3 1-267)  11400 fluorescence intensity (a.u.)
 7  AATTGACGTAATTTCAGGTCGTATTTGTGGTGCAACAACCCGGAGTCACCTAGTGCAG  OsWOX13 (Oryza sativa, UniProt Q5QMM3 1-267)  16600 fluorescence intensity (a.u.)
 8  CTATCATATTGACAGCTTTGTAATTGCTTTTGACAGGTTCCGGAGTCACCTAGTGCAG  OsWOX13 (Oryza sativa, UniProt Q5QMM3 1-267)  26400 fluorescence intensity (a.u.)
 9  ATAAACTGGAACAGAAGGCCAGGCGGAAATAAACTGGACACGGAGTCACCTAGTGCAG  OsWOX13 (Oryza sativa, UniProt Q5QMM3 1-267)   6490 fluorescence intensity (a.u.)
10  GATAACTGGTGTGGAGGCTGCGGCGTGGGTGGTAAAGCACCGGAGTCACCTAGTGCAG  OsWOX13 (Oryza sativa, UniProt Q5QMM3 1-267)   3220 fluorescence intensity (a.u.)
11  TTTGGAAATTATCTATGAATTTACCTAGTTTCATCGTCCACGGAGTCACCTAGTGCAG  OsWOX13 (Oryza sativa, UniProt Q5QMM3 1-267)   4970 fluorescence intensity (a.u.)
12  AGCCTAATTACGCCATGATTTGACAATGTGGTGCTACAGTCGGAGTCACCTAGTGCAG  OsWOX13 (Oryza sativa, UniProt Q5QMM3 1-267)  58300 fluorescence intensity (a.u.)
13  TCTGAGATTTATTGATTAGATTATAACGTAATCGTTGTTACGGAGTCACCTAGTGCAG  OsWOX13 (Oryza sativa, UniProt Q5QMM3 1-267)  29300 fluorescence intensity (a.u.)
14  TGCTTTTCATGTTTATTGATTTAGGCGCACCTGTTCTGTTCGGAGTCACCTAGTGCAG  OsWOX13 (Oryza sativa, UniProt Q5QMM3 1-267)   3190 fluorescence intensity (a.u.)
15  GAGTAATATTCAACATTTTGATTAGAGGTTAACCGGTGTACGGAGTCACCTAGTGCAG  OsWOX13 (Oryza sativa, UniProt Q5QMM3 1-267)   5370 fluorescence intensity (a.u.)
16  CATATTGACAGCTTTGTAATTGCATTTGACAGGTTCAACCCGGAGTCACCTAGTGCAG  OsWOX13 (Oryza sativa, UniProt Q5QMM3 1-267)  60500 fluorescence intensity (a.u.)
17  GATATGATATTGACACATGATATGTAATTATATATAGAGCCGGAGTCACCTAGTGCAG  OsWOX13 (Oryza sativa, UniProt Q5QMM3 1-267)  11400 fluorescence intensity (a.u.)
18  CTAATTACGTCATGATTTGACAATGTGGTGTGGTGCTACACGGAGTCACCTAGTGCAG  OsWOX13 (Oryza sativa, UniProt Q5QMM3 1-267)  37500 fluorescence intensity (a.u.)
19  AACTAAAATTACATATGTAAATTTAGTTGATATGACATGTCGGAGTCACCTAGTGCAG  OsWOX13 (Oryza sativa, UniProt Q5QMM3 1-267)  24600 fluorescence intensity (a.u.)

----------
// binding signal lookup, one value per entry
# experimental.target: OsWOX13 (Oryza sativa, UniProt Q5QMM3 1-267)
# Sequence: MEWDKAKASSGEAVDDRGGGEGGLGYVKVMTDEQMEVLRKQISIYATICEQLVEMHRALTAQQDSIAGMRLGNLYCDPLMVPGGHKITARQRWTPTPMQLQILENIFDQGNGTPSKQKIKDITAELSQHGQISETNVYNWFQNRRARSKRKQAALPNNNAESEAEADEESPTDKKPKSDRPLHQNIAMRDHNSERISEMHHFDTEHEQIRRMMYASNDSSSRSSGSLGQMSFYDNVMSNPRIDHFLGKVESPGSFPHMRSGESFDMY
# test.name: protein-binding microarray (RPBM); PBS, 2% BSA, 51.3 ng/ul salmon testes DNA, 50 uM zinc acetate, 200 nM TF, 25 C, 1 h; high values mean tight binding
# condition.context: protein: recombinant; tags: N-terminal polyhistidine and DsRed monomer fusion (pET32a); label: CyDye5-dUTP incorporated in the synthesized complementary strand; 3' TTTTT single-stranded linker to array surface; dsDNA, one strand shown
In all, about 35,000 sequences were measured (“fluorescence intensity (a.u.)”: median about 10,000, highest 2% from about 52,000 on). The sample as a whole holds a higher share of the highest values than the screen did.
measured.endpoint: binding signal

> print(dat)
                            monomer.sequence  measured.endpoint                       recorded.value
 1  TTAATTAATAATATGTTAATGATTTTCTCATCTTACCTTACGGAGTCACCTAGTGCAG     binding signal  13400 fluorescence intensity (a.u.)
 2  TTGATTGAAATTGGAGATGATGTGACTGAAAAGTTGTGTGCGGAGTCACCTAGTGCAG     binding signal  41800 fluorescence intensity (a.u.)
 3  TTGATTGAGATGTGACTGGAAAGGTGTGTCAGTGCAGGCACGGAGTCACCTAGTGCAG     binding signal  56800 fluorescence intensity (a.u.)
 4  GTTGATGAGAGTGAAATTTGATTGACAAAGGATTGACTGGCGGAGTCACCTAGTGCAG     binding signal  64400 fluorescence intensity (a.u.)
 5  ACTAATTACACAGAATGCATGTAAATTACGAGACGAATCTCGGAGTCACCTAGTGCAG     binding signal  31200 fluorescence intensity (a.u.)
 6  TTGCTTTAACTAGCTGCTTAATTATATGTTCTTTGTATTTCGGAGTCACCTAGTGCAG     binding signal   5230 fluorescence intensity (a.u.)
 7  GTTGCTAAATTTTAGTTATTACTGTGCAGTTGCCAAATTTCGGAGTCACCTAGTGCAG     binding signal   4010 fluorescence intensity (a.u.)
 8  TATGATTTATAAATTAATGGATTTAAAGTTTTAAGTTAATCGGAGTCACCTAGTGCAG     binding signal  43900 fluorescence intensity (a.u.)
 9  GCTGATGACTTTTCTCCCGGTTTCATATTTTCTTTTAGAACGGAGTCACCTAGTGCAG     binding signal   8420 fluorescence intensity (a.u.)
10  TAGATGAGTTAAATATAATTATTTGTATGTTTTAATAAATCGGAGTCACCTAGTGCAG     binding signal   3630 fluorescence intensity (a.u.)
11  GAGCAGATGATTAGTGAAGGTGTAACCCCTAACATCGTTACGGAGTCACCTAGTGCAG     binding signal  12900 fluorescence intensity (a.u.)
12  CACATTCAGTTCTAGATTAATTTATTTTGGATGAATGTATCGGAGTCACCTAGTGCAG     binding signal   6060 fluorescence intensity (a.u.)
13  AAAGTTTGGATTTTGATTGAAATTGAAGATGATGTGACTGCGGAGTCACCTAGTGCAG     binding signal  26700 fluorescence intensity (a.u.)
14  TAAAATTGAAAATTTGATTGAAATTGGAACGATGTGATGGCGGAGTCACCTAGTGCAG     binding signal  64500 fluorescence intensity (a.u.)
15  TGATTCAAATGATTGAAGCTTTCCAAAACCTATGAAATTCCGGAGTCACCTAGTGCAG     binding signal  17700 fluorescence intensity (a.u.)
16  TGTGATGAATTGAGCGAACCAGCAGGGCTTCGCCGCTCCCCGGAGTCACCTAGTGCAG     binding signal   5470 fluorescence intensity (a.u.)
17  CCAAATTTAATTTTACCTATTTTAAATGTGGCGATATATCCGGAGTCACCTAGTGCAG     binding signal  17900 fluorescence intensity (a.u.)
18  GTCATTTTAATTGCAAATGCTTTTATATGTTGTTTCTTTCCGGAGTCACCTAGTGCAG     binding signal   6630 fluorescence intensity (a.u.)
19  GTTTAATTAATTATATGTTAATGATTTTCTTTTCATGCCCCGGAGTCACCTAGTGCAG     binding signal  65400 fluorescence intensity (a.u.)

Numbers sourced from paper PMC7819943.
